- Read-out: Nuclear factor erythroid 2-related factor 2 (Homo sapiens)
- test-protocol: LTEA_HepaRG_NFE2L2: Life Technologies and Expression Analysis (LTEA) Assay for Nuclear factor erythroid 2-related factor 2 (NFE2L2) Transcription Factor using HepaRG (AID 2283527)
- setup-conditions: mRNA level, 48 h; actives raise or lower the signal
Calls of active or inactive are those of the source. How the source made its calls: active means hit-call score of the fitted dose curve at least 0.9, where 1 is the maximum; inactive means score below 0.9.
metric: AC50

compound	metric	value-measured
Nc1c(Cl)c(Cl)nc(C(=O)O)c1Cl	AC50	inactive
CCOP(=O)(OCC)Oc1nc(Cl)c(Cl)cc1Cl	AC50	49.8 µM (active)
CC(C)C1(C)N=C(c2ncccc2C(=O)O)NC1=O (stereo unspecified)	AC50	inactive
C=C(C)CN(CC)c1c([N+](=O)[O-])cc(C(F)(F)F)cc1[N+](=O)[O-]	AC50	inactive
CC1(C)C(C(=O)OC(C#N)c2cccc(Oc3ccccc3)c2)C1(C)C (stereo unspecified)	AC50	inactive

# ---- query compound ----
Which AC50 value is on record for O=P(O)(O)CCCl ? inactive

* * *

- Read-out: growth arrest and DNA damage 45 (GADD45B), GADD45B (gene 4616)
- test-protocol: LTEA_HepaRG_GADD45B: Life Technologies and Expression Analysis (LTEA) Assay for growth arrest and DNA damage 45 (GADD45B) using HepaRG (AID 2283461)
- setup-conditions: mRNA level, 48 h; actives raise or lower the signal
Active and inactive are the calls of the source. How the source made its calls: active means hit-call score of the fitted dose curve at least 0.9, where 1 is the maximum; inactive means score below 0.9.
Write down the outcome that applies. Available outcomes: label 1 = active, label 0 = inactive

Just curious, what result did CC(C)=CC1C(C(=O)OCc2coc(Cc3ccccc3)c2)C1(C)C (stereo not given) get here? label 0

Now give it for CCSC(=O)N1CCCCCC1 too. label 0

Now give it for CCOP(=O)(OCC)Oc1nc(Cl)c(Cl)cc1Cl too. label 0

Now give it for COc1cc(OC)nc(NC(=O)NS(=O)(=O)c2ncccc2OCC(F)(F)F)n1 too. label 0

Now give it for CCOc1nc(C(Cl)(Cl)Cl)ns1 too. label 1

Now give it for COC(=O)N(C(=O)N1CO[C@@]2(C(=O)OC)Cc3cc(Cl)ccc3C2=N1)c1ccc(OC(F)(F)F)cc1 too. label 1

Now give it for COP(=S)(OC)SCn1nnc2ccccc2c1=O too. label 0

Now give it for N#Cc1c[nH]cc1-c1cccc2c1OC(F)(F)O2 too. label 1

Now give it for O=P(O)(O)CCCl too. label 0

Now give it for Nc1c(Cl)c(Cl)nc(C(=O)O)c1Cl too. label 0

Now give it for CCCN(CC)CC1COC2(CCC(C(C)(C)C)CC2)O1 (stereo not given) too. label 0

Now give it for O=c1n(Cl)c(=O)n(Cl)c(=O)n1Cl too. label 0

Now give it for CCN(CC)C(=O)C(C)Oc1cccc2ccccc12 (stereo not given) too. label 0

Now give it for O=C1C2CC=CCC2C(=O)N1SC(Cl)(Cl)Cl (stereo not given) too. label 0

Now give it for CCOC(=O)C(C)OC(=O)c1cc(Oc2ccc(C(F)(F)F)cc2Cl)ccc1[N+](=O)[O-] (stereo not given) too. label 1

Now give it for CCCCC(O)(Cn1cncn1)c1ccc(Cl)cc1Cl (stereo not given) too. label 0

Now give it for COCC(=O)N(c1c(C)cccc1C)C(C)C(=O)OC (stereo not given) too. label 0

Now give it for CS(=O)(=O)c1ccc(C(=O)C2C(=O)CCCC2=O)c([N+](=O)[O-])c1 too. label 0

Now give it for OC(c1ccc(Cl)cc1)(c1ccc(Cl)cc1)C(Cl)(Cl)Cl too. label 0

Now give it for N#Cc1c(Cl)cccc1Cl too. label 0

Now give it for CC1(C)C(C(=O)OC(C#N)c2cccc(Oc3ccccc3)c2)C1(C)C (stereo not given) too. label 0

Now give it for Cc1cnc(C2=NC(C)(C(C)C)C(=O)N2)c(C(=O)O)c1 (stereo not given) too. label 0

Now give it for CC1(C)CON(Cc2ccccc2Cl)C1=O too. label 0

Now give it for Nc1cnn(-c2ccccc2)c(=O)c1Cl too. label 0

Now give it for Cc1ccc(N=CN(C)C=Nc2ccc(C)cc2C)c(C)c1 too. label 0
